inhibition at 10 µM values, listed per item
# System: IL-4 production
# procedure-summary: Test 1: inhibition of IL-4 production in human T-cell strain ATL-16T(-) stimulated with PMA (R&D Systems EIA)
# Format: cell-based
# measurement-context: 10^-5 M, ATL-16T(-) 1×10^6 cells/0.5 ml/well, 20 nM PMA, 48 hours, read-out: Inhibition rate of IL-4 production
Supply the numeric figure in %, leaving out any unit text.

Request - read-out inhibition at 10 µM | tested on IL-4 production | compound "CCCCCC(=O)/C=C/c1cc(OCCCC(=O)OCC)c(OC)cn1"
87.9

Lab request: please report inhibition at 10 µM under test system IL-4 production for "COc1cnc(/C=C/C(=O)c2ccccc2)cc1O"
106

I'm curious: which inhibition at 10 µM was measured for "CCCCCC(=O)/C=C/c1cc(OCCCCCC(=O)OC)c(OC)cn1" tested on IL-4 production?
76.8

Record lookup: for IL-4 production, what inhibition at 10 µM belongs to COC(=O)CCCCCOc1cnc(/C=C/C(O)C2CCCC2)cc1OC (stereo not shown) ?
81.2

Missing value: inhibition at 10 µM, IL-4 production, entry COc1cnc(/C=C/C(O)c2ccccc2)cc1OC (stereo not shown) . Fill in?
88

Recall the recorded inhibition at 10 µM for "CCOC(=O)CCCOc1cc(/C=C/C(=O)c2ccccc2)ncc1OC" with IL-4 production and state it.
89.1
